All values here come from paper PMC11851430.

molecular target: UniProt:Q2M2I8; assay: NanoBRET target engagement assay, intact and permeabilized cells; conditions: AAK1 intact (IC50±sd)/μM, NanoBRET, intact cells; mean of duplicates; ^a values estimated by extrapolation
Sequence (Q2M2I8 whole entry): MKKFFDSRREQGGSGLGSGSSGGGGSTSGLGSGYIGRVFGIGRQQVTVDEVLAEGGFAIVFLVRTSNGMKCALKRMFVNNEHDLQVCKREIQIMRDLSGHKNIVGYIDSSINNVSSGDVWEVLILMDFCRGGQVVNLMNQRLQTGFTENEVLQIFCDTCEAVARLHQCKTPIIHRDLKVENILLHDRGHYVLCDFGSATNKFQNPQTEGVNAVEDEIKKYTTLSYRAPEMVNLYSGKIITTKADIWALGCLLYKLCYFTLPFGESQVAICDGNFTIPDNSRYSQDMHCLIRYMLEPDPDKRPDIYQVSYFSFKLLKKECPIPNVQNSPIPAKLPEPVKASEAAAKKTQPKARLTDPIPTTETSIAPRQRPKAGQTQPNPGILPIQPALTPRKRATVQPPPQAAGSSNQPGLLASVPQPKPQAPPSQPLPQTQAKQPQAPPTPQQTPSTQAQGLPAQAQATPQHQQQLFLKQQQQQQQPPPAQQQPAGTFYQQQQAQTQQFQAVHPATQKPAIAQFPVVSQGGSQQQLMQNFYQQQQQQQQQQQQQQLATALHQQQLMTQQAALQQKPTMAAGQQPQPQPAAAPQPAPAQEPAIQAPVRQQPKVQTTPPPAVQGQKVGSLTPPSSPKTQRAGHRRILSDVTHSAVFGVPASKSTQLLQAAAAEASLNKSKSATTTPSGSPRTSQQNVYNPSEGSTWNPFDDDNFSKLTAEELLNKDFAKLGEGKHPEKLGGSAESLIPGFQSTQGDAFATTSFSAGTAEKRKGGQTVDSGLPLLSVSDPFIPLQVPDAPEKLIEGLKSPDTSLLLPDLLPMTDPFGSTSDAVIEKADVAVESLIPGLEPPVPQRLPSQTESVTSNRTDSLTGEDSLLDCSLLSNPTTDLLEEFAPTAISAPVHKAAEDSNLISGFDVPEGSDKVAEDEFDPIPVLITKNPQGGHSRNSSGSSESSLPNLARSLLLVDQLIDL
Readout type: IC50 (µM)

Compound smiles	Readout units	IC50
NC(=O)c1ccccc1Nc1nc(Nc2ccc(N3CCNCC3)cc2)ncc1Cl	µM	0.004
Cc1ncsc1-c1ccc(CNC(=O)[C@@H]2C[C@@H](O)CN2C(=O)[C@@H](NC(=O)CCOCCOCCOCCN2CCN(c3cc(Nc4cc(C5CC5)[nH]n4)nc(Nc4ccc(CC#N)cc4)n3)CC2)C(C)(C)C)cc1	µM	0.21
CC(=O)N[C@H](C(=O)N1C[C@H](O)C[C@H]1C(=O)NCc1ccc(-c2scnc2C)cc1OCCOCCOCCOCCOCCC(=O)N1CCN(c2cc(Nc3cc(C4CC4)[nH]n3)nc(Nc3ccc(CC#N)cc3)n2)CC1)C(C)(C)C	µM	0.126
Cc1ncsc1-c1ccc(CNC(=O)[C@@H]2C[C@@H](O)CN2C(=O)[C@@H](NC(=O)CCOCCOCCOCCOCCN2CCN(c3ccc(Nc4ncc(Cl)c(Nc5ccccc5C(N)=O)n4)cc3)CC2)C(C)(C)C)cc1	µM	0.13
CCOC(=O)c1cc(Nc2cc(C3CC3)[nH]n2)nc(Nc2ccc(CC#N)cc2)n1	µM	0.012

1. Cc1ncsc1-c1ccc(CNC(=O)[C@@H]2C[C@@H](O)CN2C(=O)[C@@H](NC(=O)CCCCCCN2CCN(c3ccc(Nc4ncc(Cl)c(Nc5ccccc5C(N)=O)n4)cc3)CC2)C(C)(C)C)cc1
2. CC(=O)N[C@H](C(=O)N1C[C@H](O)C[C@H]1C(=O)NCc1ccc(-c2scnc2C)cc1OCCOCCOCCOCCOCCC(=O)N1CCN(c2ccc(Nc3ncc(Cl)c(Nc4ccccc4C(N)=O)n3)cc2)CC1)C(C)(C)C
Q. Between these two entries, 1 and 2 , state which has the higher IC50. Please identify the chosen entry by its label.
A. 2

I. CC(=O)N[C@H](C(=O)N1C[C@H](O)C[C@H]1C(=O)NCc1ccc(-c2scnc2C)cc1OCCOCCOCCOCCNC(=O)c1cc(Nc2cc(C3CC3)[nH]n2)nc(Nc2ccc(CC#N)cc2)n1)C(C)(C)C
II. CC(C)(C)OC(=O)NCCOCCOCCOCCOCCC(=O)N1CCN(c2cc(Nc3cc(C4CC4)[nH]n3)nc(Nc3ccc(CC#N)cc3)n2)CC1
Q. Between these two entries, I and II , state which has the higher IC50. Please identify the chosen entry by its label.
A. I
(I: 0.299 µM, II: 0.099 µM)
